Target: hERG (Homo sapiens, UniProt Q12809)
Construct: host or cells: T-REx HEK293
Sequence (Q12809 whole entry): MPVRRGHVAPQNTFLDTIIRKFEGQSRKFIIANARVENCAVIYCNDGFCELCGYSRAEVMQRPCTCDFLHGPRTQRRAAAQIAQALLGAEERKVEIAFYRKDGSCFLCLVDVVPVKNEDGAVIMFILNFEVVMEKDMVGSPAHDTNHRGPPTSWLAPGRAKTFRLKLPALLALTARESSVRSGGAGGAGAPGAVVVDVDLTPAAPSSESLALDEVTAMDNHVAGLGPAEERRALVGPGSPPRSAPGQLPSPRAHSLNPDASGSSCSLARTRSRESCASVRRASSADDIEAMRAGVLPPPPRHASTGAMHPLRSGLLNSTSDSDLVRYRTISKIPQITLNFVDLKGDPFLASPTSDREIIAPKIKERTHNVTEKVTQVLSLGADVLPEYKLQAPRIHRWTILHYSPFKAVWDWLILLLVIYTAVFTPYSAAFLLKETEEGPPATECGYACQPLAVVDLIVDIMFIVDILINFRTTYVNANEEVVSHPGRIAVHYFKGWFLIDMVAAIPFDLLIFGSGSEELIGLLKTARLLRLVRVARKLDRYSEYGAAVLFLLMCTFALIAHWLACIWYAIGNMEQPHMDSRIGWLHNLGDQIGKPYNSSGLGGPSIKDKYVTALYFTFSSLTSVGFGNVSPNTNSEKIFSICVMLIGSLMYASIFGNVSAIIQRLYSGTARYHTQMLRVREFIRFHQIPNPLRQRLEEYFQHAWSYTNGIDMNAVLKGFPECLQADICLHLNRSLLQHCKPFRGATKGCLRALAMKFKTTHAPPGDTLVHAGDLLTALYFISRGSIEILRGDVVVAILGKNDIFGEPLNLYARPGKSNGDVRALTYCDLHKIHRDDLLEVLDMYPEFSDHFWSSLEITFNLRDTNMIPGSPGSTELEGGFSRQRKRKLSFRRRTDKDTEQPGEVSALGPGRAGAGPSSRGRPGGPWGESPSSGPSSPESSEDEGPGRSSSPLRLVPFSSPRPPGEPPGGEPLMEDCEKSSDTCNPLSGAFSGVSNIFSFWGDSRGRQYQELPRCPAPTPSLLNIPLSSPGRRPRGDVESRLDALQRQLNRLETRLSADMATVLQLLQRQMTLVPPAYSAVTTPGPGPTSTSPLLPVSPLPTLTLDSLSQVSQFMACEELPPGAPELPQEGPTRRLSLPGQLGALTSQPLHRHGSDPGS
Experiment: In-vitro hERG inhibition assay (manual patch clamp, hERG-T-REx HEK 293 cells)
Assay type: cell-based
Settings: tail current
Where a name gives a salt, the structure may show the parent alone.
Please use true (1) for IC50 under 6 µM and false (0) for everything else, ties included.

Use these answered entries as a reference point.
>>> print(df.to_string())
                                   compound  answer_label
0  CN1C(=O)C2(CCC2)c2c1cnc1ccc(-c3cnc(N4CC(N(C)C)C4)c(NS(C)(=O)=O)c3)cc21 [Compound 574, hydrochloride]     false (0)
1  CC(C)NCCOc1ncc(-c2cc3c(cc2F)ncc2c3[C@]3(C[C@H](OCc4ccccc4)C3)C(=O)N2C)cc1NS(C)(=O)=O     false (0)
2  CC(C)NCCOc1ncc(-c2cc3c4c(cnc3cc2F)N(C)C(=O)C42CCC2)cc1NS(=O)(=O)C(C)C     false (0)
3  CCS(=O)(=O)Nc1cc(-c2cc3c4c(cnc3cc2F)N(C)C(=O)C42CCC2)cnc1OCCNC(C)C     false (0)
4  CC(C)NCCOc1ncc(-c2cc3c4c(cnc3cc2F)N(C)C(=O)C42CN(C(C)C)C2)cc1NS(C)(=O)=O      true (1)

Query block: Please determine if "CC(C)NCCOc1ncc(-c2cc3c(cc2F)ncc2c3[C@]3(C[C@@H](OCc4ccccc4)C3)C(=O)N2C)cc1NS(C)(=O)=O" is below 6 µM in terms of IC50.
Result block: true (1)

Query block: In plain terms, does "CC[C@H]1C[C@]2(C1)C(=O)N(C)c1cnc3cc(F)c(-c4cnc(OCCNC(C)C)c(NS(C)(=O)=O)c4)cc3c12" come in under 6 µM for IC50?
Result block: true (1)

Query block: Here's an entry: "CC[C@H]1C[C@@]2(C1)C(=O)N(C)c1cnc3cc(F)c(-c4cnc(OCCNC(C)C)c(NS(C)(=O)=O)c4)cc3c12" . Is its IC50 below 6 µM?
Result block: true (1)

* * *

Observed pIC50, system PI3Kδ (Homo sapiens).
Structures can show the parent of a compound that is named as a salt.
Please report pIC50 as the negative decimal logarithm of the molar concentration, giving only the number.

Completed entries (count: 4):
>>> print(df.to_string())
                                   molecule  measured_parameter  reported_value
0  CC(C)NCCOc1ncc(-c2cc3c4c(cnc3cc2F)N(C)C(=O)C42CCC2)cc1NS(=O)(=O)C(C)C               pIC50            7.27
1  CN1C(=O)C2(CCC2)c2c1cnc1ccc(-c3cnc(N4CC(N(C)C)C4)c(NS(C)(=O)=O)c3)cc21 [Compound 574, hydrochloride]               pIC50            8.52
2  CCS(=O)(=O)Nc1cc(-c2cc3c4c(cnc3cc2F)N(C)C(=O)C42CCC2)cnc1OCCNC(C)C               pIC50            7.26
3  CC(C)NCCOc1ncc(-c2cc3c4c(cnc3cc2F)N(C)C(=O)C42CCC2)cc1NS(C)(=O)=O               pIC50            7.14

Query block: // fetch PI3Kδ (Homo sapiens) pIC50 for "CC(C)NCCOc1ncc(-c2cc3c(cc2F)ncc2c3[C@]3(C[C@H](OCc4ccccc4)C3)C(=O)N2C)cc1NS(C)(=O)=O"
Result block: 7.82

Query block: Form field: pIC50 recorded for "CC[C@H]1C[C@]2(C1)C(=O)N(C)c1cnc3cc(F)c(-c4cnc(OCCNC(C)C)c(NS(C)(=O)=O)c4)cc3c12" with PI3Kδ (Homo sapiens) (enter value)
Result block: 7.92
